test-method-notes: S16 Schwann cell viability assay (CellTiter-Glo assay) (AID 624031); also: nearly all actives have a fitted effect of over 70% in size
applied-conditions: S16 rat Schwann cells viability, 24 h; series mostly up to 57.5 µM
Inconclusive results are not listed. The source made the active and inactive calls. Calls follow the shape of the dose curve; as a rule, active = well fitted cell-killing curve with a large enough effect; inconclusive = small, poorly fitted or top-dose-only effect, or effect the other way; inactive = flat fitted curve, though single readings scatter.
Entry note: the call must match one of active, inactive

Some entries whose results are on file:
compound	answer-label
Cc1cc(-c2ccc(N=Nc3c(S(=O)(=O)O)cc4cc(S(=O)(=O)O)cc(N)c4c3O)c(C)c2)ccc1N=Nc1c(S(=O)(=O)O)cc2cc(S(=O)(=O)O)cc(N)c2c1O	active
C=CCN1CCCC1CNC(=O)c1cc(S(N)(=O)=O)cc(OC)c1OC (stereo unspecified)	inactive

Ask: Which result was noted for this compound in the test: CCCc1ccc(C(=O)O)cc1
Result: inactive

Ask: Which result was noted for this compound in the test: O=C1CCC(=O)N1CO
Result: inactive

Ask: Which result was noted for this compound in the test: O=S(=O)(O)CC(S)CS (stereo unspecified)
Result: inactive

Ask: Which result was noted for this compound in the test: CC(O)CN(C)C (stereo unspecified)
Result: inactive

====

Tested on: 3D7
test-method-notes: qHTS profiling for inhibitors of Plasmodium falciparum proliferation (AID 504749); also: nearly all actives have a fitted effect of over 60% in size
applied-conditions: P. falciparum in erythrocytes, SYBR Green DNA, 72 h; series mostly up to 28.7 µM
Records with an inconclusive call do not appear. The source made the active and inactive calls. Calls follow the shape of the dose curve; as a rule, active = well fitted inhibition curve with a large enough effect; inconclusive = small, poorly fitted or top-dose-only effect; inactive = flat fitted curve, though single readings scatter.
Entry note: the call must match one of True = active, False = inactive

Some entries whose results are on file:
compound	answer-label
CC(O)CN(C)C (stereo unspecified)	False
FCOC(C(F)(F)F)C(F)(F)F	False
CC[C@H]1OC(=O)[C@H](C)[C@@H](O[C@H]2C[C@@](C)(OC)[C@@H](O)[C@H](C)O2)[C@H](C)[C@@H](O[C@@H]2O[C@H](C)C[C@H](N(C)C)[C@H]2O)[C@](C)(O)C[C@@H](C)CN(C)[C@H](C)[C@@H](O)[C@]1(C)O	False

Ask: Which result was noted for this compound in the test: C[C@H](CCC(=O)O)[C@H]1CC[C@H]2[C@@H]3CC[C@@H]4C[C@H](O)CC[C@]4(C)[C@H]3C[C@H](O)[C@]12C
Result: False

Ask: Which result was noted for this compound in the test: CCOC(=O)c1c[nH]c2cc(OCC(C)C)c(OCC(C)C)cc2c1=O
Result: True

Ask: Which result was noted for this compound in the test: COC(=O)c1ccccc1O
Result: False

Ask: Which result was noted for this compound in the test: OCC(O)CO
Result: False

Ask: Which result was noted for this compound in the test: Cc1ncc(C[n+]2csc(CCOP(=O)(O)O)c2C)c(N)n1
Result: False

Ask: Which result was noted for this compound in the test: CCCCCCCCCC(=O)NO
Result: False

Ask: Which result was noted for this compound in the test: C=CC[N+]1([C@H]2C[C@H]3[C@@H]4CC[C@H]5C[C@H](O)[C@@H](N6CCOCC6)C[C@]5(C)[C@H]4CC[C@]3(C)[C@H]2OC(C)=O)CCCC1
Result: False

Ask: Which result was noted for this compound in the test: CC(C)c1nc(N(C)S(C)(=O)=O)nc(-c2ccc(F)cc2)c1/C=C/C(O)CC(O)CC(=O)O (stereo unspecified)
Result: False

====

Test system: W2
test-method-notes: qHTS profiling for inhibitors of Plasmodium falciparum proliferation (AID 504749); also: nearly all actives have a fitted effect of over 60% in size
applied-conditions: P. falciparum in erythrocytes, SYBR Green DNA, 72 h; series mostly up to 28.7 µM
Inconclusive results are not listed. The source made the active and inactive calls. The call rests on the fitted dose curve; in most records, active means well fitted inhibition curve with a large enough effect; inconclusive means small, poorly fitted or top-dose-only effect; inactive means flat fitted curve, though single readings scatter.
Entry note: the call must match one of YES (active), NO (inactive)

Some entries whose results are on file:
compound	system	answer-label
OCCOCCOCCO	W2	NO
Cc1ncc[nH]1	W2	NO
Oc1cc(O)cc(O)c1	W2	NO
CCCCO	W2	NO
N=C(N)n1cccn1	W2	NO
O=C(Nc1ccc(O)cc1)c1ccccc1O	W2	NO

Ask: Which result was noted for this compound in the test: COc1cc2c(cc1OC)[C@@H](Cc1cc(OC)c(OC)c(OC)c1)[N+](C)(CCCOC(=O)CC/C=C/CCC(=O)OCCC[N+]1(C)CCc3cc(OC)c(OC)cc3[C@H]1Cc1cc(OC)c(OC)c(OC)c1)CC2 (stereo not given in full)
Result: NO

Ask: Which result was noted for this compound in the test: CCOc1ccc(S(=O)(=O)O)c2cccnc12
Result: NO

Ask: Which result was noted for this compound in the test: O=P(O)(O)CP(=O)(O)O
Result: NO

Ask: Which result was noted for this compound in the test: c1ccc(-n2cnnn2)cc1
Result: NO

Ask: Which result was noted for this compound in the test: CCN(CC)CCC(=O)N1c2ccccc2Sc2ccc(C(F)(F)F)cc21
Result: YES

Ask: Which result was noted for this compound in the test: Cc1ccc(C(C)(C)c2ccc(C)cc2)cc1
Result: NO

Ask: Which result was noted for this compound in the test: CC(C)(CO)[C@@H](O)C(=O)NCCC(=O)NCCSSCCNC(=O)CCNC(=O)[C@H](O)C(C)(C)CO
Result: NO

Ask: Which result was noted for this compound in the test: OC[C@H]1O[C@@H]2O[C@H]3[C@H](O)[C@@H](O)[C@@H](O[C@H]4[C@H](O)[C@@H](O)[C@@H](O[C@H]5[C@H](O)[C@@H](O)[C@@H](O[C@H]6[C@H](O)[C@@H](O)[C@@H](O[C@H]7[C@H](O)[C@@H](O)[C@@H](O[C@H]1[C@H](O)[C@H]2O)O[C@@H]7CO)O[C@@H]6CO)O[C@@H]5CO)O[C@@H]4CO)O[C@@H]3CO
Result: NO

Ask: Which result was noted for this compound in the test: COc1ccc(/C=C/C(=O)O)cc1
Result: NO

Ask: Which result was noted for this compound in the test: OCCCNc1ccccc1
Result: NO

Ask: Which result was noted for this compound in the test: N#Cc1ccc2c(c1)N(CCCN1CCC(O)CC1)c1ccccc1S2
Result: YES

====

System: CP256
test-method-notes: qHTS profiling for inhibitors of Plasmodium falciparum proliferation (AID 504749); also: nearly all actives have a fitted effect of over 60% in size
applied-conditions: P. falciparum in erythrocytes, SYBR Green DNA, 72 h; series mostly up to 28.7 µM
Results filed as inconclusive are left out. The source made the active and inactive calls. Calls come from the whole dose curve; as a rule, active = well fitted inhibition curve with a large enough effect; inconclusive = small, poorly fitted or top-dose-only effect; inactive = flat fitted curve, though single readings scatter.
Entry note: the call must match one of yes (1) = active, no (0) = inactive

molecule	answer-label
Oc1cc(O)cc(O)c1	no (0)
CC(O)CN(C)C (stereo not drawn)	no (0)
O=C(O)c1ccc(NC(=O)[C@H](Cc2ccc(O)cc2)NC(=O)c2ccccc2)cc1	no (0)
CO[C@H]1C[C@@H]2CC[C@@H](C)[C@@](O)(O2)C(=O)C(=O)N2CCCC[C@H]2C(=O)O[C@H]([C@H](C)C[C@@H]2CC[C@@H](OC(=O)C(C)(CO)CO)[C@H](OC)C2)CC(=O)[C@H](C)/C=C(\C)[C@@H](O)[C@@H](OC)C(=O)[C@H](C)C[C@H](C)/C=C/C=C/C=C/1C	no (0)
CN1CCc2c(c3ccccc3n2Cc2ccccc2)C1	no (0)

Ask: Which result was noted for this molecule in the test: Nc1ncnc2c1ncn2CCOCP(=O)(O)O
Result: no (0)

Ask: Which result was noted for this molecule in the test: CCc1ccc(S(=O)(=O)O)cc1
Result: no (0)

Ask: Which result was noted for this molecule in the test: CN(C)C=Nc1c(I)cc(I)c(CCC(=O)O)c1I
Result: no (0)

Ask: Which result was noted for this molecule in the test: O=C(O)/C=C/C(=O)Nc1ccc(S(=O)(=O)Nc2nccs2)cc1
Result: no (0)

Ask: Which result was noted for this molecule in the test: Cc1c(C)c2c(c(C)c1OC(=O)CCC(=O)O)CC[C@@](C)(CCC[C@H](C)CCC[C@H](C)CCCC(C)C)O2
Result: no (0)

Ask: Which result was noted for this molecule in the test: O=c1[nH]c(=O)n([C@H]2C[C@H](O)[C@@H](CO)O2)cc1/C=C/Br
Result: no (0)

Ask: Which result was noted for this molecule in the test: CC/C(=C(/CC)c1ccc(OP(=O)(O)O)cc1)c1ccc(OP(=O)(O)O)cc1
Result: no (0)

Ask: Which result was noted for this molecule in the test: C[C@H](CCCC(C)(C)O)[C@H]1CC[C@H]2[C@@H]3CC=C4C[C@@H](O)CC[C@]4(C)[C@H]3CC[C@]12C
Result: no (0)

Ask: Which result was noted for this molecule in the test: CC1CC(O)CC(C)(C)C1 (stereo not drawn)
Result: no (0)

Ask: Which result was noted for this molecule in the test: CS(=O)(=O)OCC(O)C(O)COS(C)(=O)=O (stereo not drawn)
Result: no (0)

====

Tested on: W2
test-method-notes: qHTS profiling for inhibitors of Plasmodium falciparum proliferation (AID 504749); also: nearly all actives have a fitted effect of over 60% in size
applied-conditions: P. falciparum in erythrocytes, SYBR Green DNA, 72 h; series mostly up to 28.7 µM
Inconclusive results are not listed. Active and inactive are the calls of the source. Calls come from the whole dose curve; as a rule, active = well fitted inhibition curve with a large enough effect; inconclusive = small, poorly fitted or top-dose-only effect; inactive = flat fitted curve, though single readings scatter.
Entry note: the call must match one of active, inactive

Some entries whose results are on file:
molecule	system	answer-label
CCCCC(CC)CCC(CC(C)C)OS(=O)(=O)O (stereo not drawn)	W2	inactive
NC(=S)N=Nc1ccc(NN=C(N)N)cc1	W2	active

Okay, next one:
Ask: Which result was noted for this molecule in the test: CC12CCC(C1)C(C)(C)C2=O (stereo not drawn)
Result: inactive
